Biological target: Bcl-2 protein (Recombinant Human Bcl-2 Protein) (Homo sapiens)
Construct: purchased Novus Biologicals NBP2-34889
Assay: AS-MS evaluation of binding of the mixture libraries of Examples 8 and 9 to Bcl-2, ASMS ratio (%), Example 11
Settings: ASMS ratio, replicate N4 (additional day); mixtures obtained from Example 9, 10 uM Bcl-2 protein
Experimental Endpoint: AS-MS(%) N4

Record excerpt, results attached:
CCOc1cc(C(C)C(=O)Nc2ccc(C)cc2)cc(N2CCN(c3ccc(C(=O)NS(=O)(=O)c4ccc(N[C@H](CCN5CCOCC5)CSc5ccccc5)c([N+](=O)[O-])c4)cc3)CC2)c1 (stereo partly drawn) = 46.2%
CC(C(=O)Nc1ccccc1)c1cc(O)cc(N2CCN(c3ccc(C(=O)NS(=O)(=O)c4ccc(NCCSc5ccccc5)c([N+](=O)[O-])c4)cc3)CC2)c1 (stereo not drawn) = 38.0%

# input for lookup
Prompt line: Given the compound CC(C(=O)Nc1ccccc1)c1cc(O)cc(N2CCN(c3ccc(C(=O)NS(=O)(=O)c4ccc(N[C@H](CCN5CCOCC5)CSc5ccccc5)c([N+](=O)[O-])c4)cc3)CC2)c1 (stereo partly drawn) , what is its reported AS-MS(%) N4?
Response line: 71.8%

----------
Target: Bcl-2 protein (Recombinant Human Bcl-2 Protein) (Homo sapiens, UniProt P10415)
Construct: purchased Novus Biologicals NBP2-34889
Sequence (P10415 whole entry): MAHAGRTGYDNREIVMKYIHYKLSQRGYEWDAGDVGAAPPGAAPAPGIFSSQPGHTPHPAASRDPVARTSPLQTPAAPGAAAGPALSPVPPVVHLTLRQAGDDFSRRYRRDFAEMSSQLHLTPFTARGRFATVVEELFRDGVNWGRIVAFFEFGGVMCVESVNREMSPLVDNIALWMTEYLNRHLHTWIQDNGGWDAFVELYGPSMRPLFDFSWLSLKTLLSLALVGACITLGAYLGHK
Test: AS-MS evaluation of binding of the Example 4 mixture library (1200 compounds/well) to Bcl-2, ASMS ratio (%)
Details: AS-MS, Example 4 mixture library, Bcl-2, replicate n = 1
Record form. Attribute: ASMS ratio (%) n = 1. Fill in for each entry.
Give bare numbers, in %.

Answered examples (4):
CCOc1cccc(-c2cnn(-c3cc(C(=O)N4CCN(c5ccc(C(=O)NS(=O)(=O)CCC(F)(F)F)cc5)CC4)cc(C(F)(F)F)c3)c2)c1 [Compound B2N043-01] = −1.4
CCOc1cncc(-c2cc(CN3CCN(c4ccc(C(=O)NS(=O)(=O)c5ccc(NCCSc6ccccc6)c(C(F)(F)F)c5)cc4)CC3)cc(OC(C)C)c2)c1 [Compound B2R058-01] = 13.0
CCOc1cccc(-c2ccc(C(C)N3CCN(c4ccc(C(=O)NS(=O)(=O)CCC(F)(F)F)cc4)CC3)cc2)c1 (stereo not drawn) [Compound B2N097-01] = 0.0
CCOc1cncc(-c2cc(C(=O)N3CCN(c4ccc(C(=O)NS(=O)(=O)CCC(F)(F)F)nn4)CC3)cc(C(F)(F)F)c2)c1 [Compound B2N018-01] = 0.0

// input: 2 molecules below; output: ASMS ratio (%) n = 1 for each
1. CCOc1cccc(-c2ccc(C(=O)N3CCN(c4ccc(C(=O)NS(=O)(=O)c5ccc(NCCSc6ccccc6)c(C(F)(F)F)c5)nn4)CC3)c3ccccc23)c1 [Compound B2R013-01]
2. CCOc1cccc(-c2ccccc2CN2CCN(c3ccc(C(=O)NS(=O)(=O)c4ccc(NCCSc5ccccc5)c(C(F)(F)F)c4)nn3)CC2)c1 [Compound B2R071-01]

Response line:
1: 7.5; 2: 14.3

----------
Could you please report measured ASMS ratio (%) n = 2 for the items listed next?
Target: Bcl-2 protein (Recombinant Human Bcl-2 Protein) (Homo sapiens, UniProt P10415)
Construct: purchased Novus Biologicals NBP2-34889
Assay: AS-MS evaluation of binding of the Example 4 mixture library (1200 compounds/well) to Bcl-2, ASMS ratio (%)
Details: AS-MS, Example 4 mixture library, Bcl-2, replicate n = 2
Give bare numbers, in %.

The following compounds have reported results that may help.
CCOc1cncc(-c2ccc(C(=O)N3CCN(c4ccc(C(=O)NS(=O)(=O)CCC(F)(F)F)cc4)CC3)c3ccccc23)c1 = 0.4
CCOc1cccc(-c2ccc(CN3CCN(c4ccc(C(=O)NS(=O)(=O)c5ccc(NCCSc6ccccc6)c(C(F)(F)F)c5)cc4)CC3)c(OC)c2)c1 = 0.0
CCOc1cccc(-c2cc(CN3CCN(c4ccc(C(=O)NS(=O)(=O)c5ccc(NCCSc6ccccc6)c(C(F)(F)F)c5)nn4)CC3)cc(OC(F)(F)F)c2)c1 = −9.2
CCOc1cncc(-c2ccc(C(=O)N3CCN(c4ccc(C(=O)NS(=O)(=O)c5ccc(NCCSc6ccccc6)c(C(F)(F)F)c5)nn4)CC3)c3ccccc23)c1 = 15.1

// next entry
Prompt line: # ASMS ratio (%) n = 2 lookup, item CCOc1cccc(-c2ccc(C(=O)N3CCN(c4ccc(C(=O)NS(=O)(=O)c5ccc(NCCSc6ccccc6)c(C(F)(F)F)c5)cc4)CC3)c3ccccc23)c1
Response line: 0.9

Where do these numbers come from? They come from patent US20250154686A1.
